Attribution: patent US20230346820A1

- Test system: SARS-CoV-2
Counter-ions that a name gives are not always drawn.
READOUT_LABEL: HeLa-ACE2 CC50/CoV-2 EC50

>  <COMPOUND>
COc1ccc2c(O[C@@H]3C[C@H]4C(=O)N[C@]5(C(=O)NS(=O)(=O)C6CC6)C[C@H]5/C=C\CCCCN(C)C(=O)[C@@H]4C3)cc(-c3nc(C(C)C)cs3)nc2c1C

>  <OBSERVED_VALUE>
>2.81

$$$$
>  <COMPOUND>
CC(C)(/C=N/OCC(=O)O)Cc1c(SC(C)(C)C)c2cc(OCc3ccc4ccccc4n3)ccc2n1Cc1ccc(Cl)cc1

>  <OBSERVED_VALUE>
>3.02

$$$$
>  <COMPOUND>
C=CCc1c(OCCCNCc2ccccc2)ccc2c1[nH]c1ccccc12

>  <OBSERVED_VALUE>
4.89

$$$$
>  <COMPOUND>
COC(=O)C1=C(C)NC(C)=C(C(=O)OCCN2CCN(C(c3ccccc3)c3ccccc3)CC2)C1c1cccc([N+](=O)[O-])c1 (stereo not shown)

>  <OBSERVED_VALUE>
>2.48

$$$$
>  <COMPOUND>
OC(CNCC(O)C1CCc2cc(F)ccc2O1)C1CCc2cc(F)ccc2O1 (stereo not shown) [nebivolol hydrochloride]

>  <OBSERVED_VALUE>
>3.75

$$$$
>  <COMPOUND>
CCOC(=O)c1c(CSc2ccccc2)n(C)c2cc(Br)c(O)c(CN(C)C)c12

>  <OBSERVED_VALUE>
4.88

$$$$
>  <COMPOUND>
Cc1c(O)cccc1C(=O)N[C@@H](CSc1ccccc1)[C@H](O)CN1C[C@H]2CCCC[C@H]2C[C@H]1C(=O)NC(C)(C)C [nelfinavir mesylate]

>  <OBSERVED_VALUE>
>2.08

$$$$

* * *

CC50 overview
- EXPERIMENT_SUMMARY: in vitro
- PARTICULARS: human
READOUT_LABEL: CC50

>  <MOLECULE>
N#Cc1cccc(C(C(=O)NCC(c2ccccc2)c2ccccc2)N(CCc2c[nH]cn2)C(=O)c2ccccc2C(=O)c2ccccc2)c1 (stereo not drawn) [GENZ-29155]

>  <READOUT_LABEL>
CC50

>  <OBSERVED_VALUE>
> 29.9 µM

$$$$
>  <MOLECULE>
C=Cc1cc(C(=O)Nc2ccc(C(=N)N)cc2)c(-c2ccc(C(=O)NCC3CC3)nc2C(=O)O)cc1OC [Avoralstat]

>  <READOUT_LABEL>
CC50

>  <OBSERVED_VALUE>
> 29.9 µM

$$$$
>  <MOLECULE>
CC(N)c1ccc(C(=O)Nc2ccncc2)cc1-c1ccc(F)cc1 (stereo not drawn) [AMA-0076]

>  <READOUT_LABEL>
CC50

>  <OBSERVED_VALUE>
> 29.9 µM

$$$$

* * *

- EXPERIMENT_SUMMARY: in vitro
- PARTICULARS: human, CC50 [μM] (Geomeans, n ≥ 2 except where indicated: *n = 1)
Structures can show the parent of a compound that is named as a salt.

>  <COMPOUND>
N#Cc1ccc2c(c1)[C@H]1CN(CCCCNC(=O)c3ccc(-c4ccccc4)cc3)C[C@@H]1CO2 [S-33084]

>  <CC50>
> 24.8 µM

$$$$
>  <COMPOUND>
CCOc1cc(C(C)(C)C)ccc1C1=N[C@@](C)(c2ccc(Cl)cc2)[C@@](C)(c2ccc(Cl)cc2)N1C(=O)N1CCN(CCCS(C)(=O)=O)CC1 [R-7112]

>  <CC50>
> 14.9 µM

$$$$
>  <COMPOUND>
CN1C[C@@H]2c3ccccc3Oc3ccc(Cl)cc3[C@H]2C1 (racemic) [Asenapine maleate]

>  <CC50>
> 35.6 µM

$$$$
>  <COMPOUND>
Nc1ncnc2c1nc(Cl)n2[C@@H]1O[C@H](CO)[C@@H](O)[C@H]1O [8-Chloroadenosine]

>  <CC50>
> 11.9 µM

$$$$
